This collection of values is drawn from patent US20250195521A1.

Exercise: state measured IC50 for each of the compounds provided.
biological target: KRAS G12C (Homo sapiens (Human), UniProt P01116+P62937, G12C); experiment: Ras-Raf disruption/FRET/MOA assay (BRAF RBD, Cyclophilin A); assay type: biochemical; conditions: read-out: KRAS G12C FRET IC50
Sequence (P01116-2 other isoform, or with tags, fused parts or gaps G12C): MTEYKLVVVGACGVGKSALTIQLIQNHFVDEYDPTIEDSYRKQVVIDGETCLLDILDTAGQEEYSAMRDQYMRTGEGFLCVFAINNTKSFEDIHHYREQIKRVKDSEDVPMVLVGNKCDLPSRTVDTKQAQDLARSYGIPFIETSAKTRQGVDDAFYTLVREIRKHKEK
Sequence (P62937 whole entry): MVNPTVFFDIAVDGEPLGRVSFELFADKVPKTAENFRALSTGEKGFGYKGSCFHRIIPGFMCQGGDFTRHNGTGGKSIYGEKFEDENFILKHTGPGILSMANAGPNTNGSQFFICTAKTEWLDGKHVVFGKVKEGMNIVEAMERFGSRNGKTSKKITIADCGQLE

Fill blank: measured IC50 of the compound CCn1c(-c2cccnc2[C@H](C)OC)c2c3cc(ccc31)-c1csc(n1)C[C@H](NC(=O)[C@H](C(C)C)N(C)C(=O)N1CC[C@H]1CN)C(=O)N1CCC[C@H](N1)C(=O)OCC(C)(C)C2 is ____.
100 to 1000 nM

Fill blank: measured IC50 of the compound CCn1c(-c2cccnc2[C@H](C)OC)c2c3cc(ccc31)-c1csc(n1)C[C@H](NC(=O)[C@H](C(C)C)N1C[C@@H](c3ccccc3)CC1=O)C(=O)N1CCC[C@H](N1)C(=O)OCC(C)(C)C2 (single isomer, unassigned) is ____.
100 to 1000 nM

Fill blank: measured IC50 of the compound CCn1c(-c2cccnc2[C@H](C)OC)c2c3cc(ccc31)-c1cc(O)cc(c1)C[C@H](NC(=O)[C@H](C(C)C)N(C)C(=O)[C@H]1CCN(C(=O)OC3CN(C)C3)C1)C(=O)N1CCC[C@H](N1)C(=O)OCC(C)(C)C2 is ____.
10 to 100 nM

Fill blank: measured IC50 of the compound CCn1c(-c2cnccc2COC)c2c3cc(ccc31)-c1cc(O)cc(c1)C[C@H](NC(=O)[C@H](C(C)C)N(C)C(=O)[C@H]1CCN(C3CCOCC3)C1)C(=O)N1CCC[C@H](N1)C(=O)OCC(C)(C)C2 is ____.
100 to 1000 nM

Fill blank: measured IC50 of the compound CCn1c(-c2cnccc2COC)c2c3cc(ccc31)-c1cc(O)cc(c1)C[C@H](NC(=O)[C@H](C(C)C)N(C)C(=O)N1CCNCC1)C(=O)N1CCC[C@H](N1)C(=O)OCC(C)(C)C2 is ____.
10 to 100 nM

Fill blank: measured IC50 of the compound CCn1c(-c2cccnc2[C@H](C)OC)c2c3cc(ccc31)-c1cc(O)cc(c1)C[C@H](NC(=O)[C@H](C(C)C)N(C)C(=O)[C@@H]1CNC[C@@H]1C)C(=O)N1CCC[C@H](N1)C(=O)OCC(C)(C)C2 is ____.
10 to 100 nM

Fill blank: measured IC50 of the compound CCn1c(-c2cccnc2[C@H](C)OC)c2c3cc(ccc31)-c1csc(n1)C[C@H](NC(=O)[C@H](C(C)C)N(C)C(=O)N1CC[C@H](O)C1)C(=O)N1CCC[C@H](N1)C(=O)OCC(C)(C)C2 is ____.
10 to 100 nM

Fill blank: measured IC50 of the compound CCn1c(-c2cccnc2[C@H](C)OC)c2c3cc(ccc31)-c1cc(O)cc(c1)C[C@H](NC(=O)[C@H](C(C)C)N(C)C(=O)C1CCCC1)C(=O)N1CCC[C@H](N1)C(=O)OCC(C)(C)C2 is ____.
10 to 100 nM

Fill blank: measured IC50 of the compound CCn1c(-c2cccnc2[C@H](C)OC)c2c3cc(ccc31)-c1csc(n1)C[C@H](NC(=O)[C@H](C(C)C)N1CCCC1=O)C(=O)N1CCC[C@H](N1)C(=O)OCC(C)(C)C2 is ____.
1000 to 10000 nM

Fill blank: measured IC50 of the compound CCn1c(-c2cccnc2[C@H](C)OC)c2c3cc(ccc31)-c1csc(n1)C[C@H](NC(=O)[C@H](C(C)C)N(C)C(=O)N1CCC[C@H](N(C)C)CC1)C(=O)N1CCC[C@H](N1)C(=O)OCC(C)(C)C2 is ____.
10 to 100 nM

Fill blank: measured IC50 of the compound CCn1c(-c2cccnc2[C@H](C)OC)c2c3cc(ccc31)-c1cc(O)cc(c1)C[C@H](NC(=O)[C@H](C(C)C)N(C)C(=O)C1(C(=O)O)CC1)C(=O)N1CCC[C@H](N1)C(=O)OCC(C)(C)C2 is ____.
1000 to 10000 nM

Fill blank: measured IC50 of the compound CCn1c(-c2cccnc2[C@H](C)OC)c2c3cc(ccc31)-c1csc(n1)C[C@H](NC(=O)[C@H](C(C)C)N(C)C(=O)N1CC(Cc3cnn(C)c3)C1)C(=O)N1CCC[C@H](N1)C(=O)OCC(C)(C)C2 is ____.
10 to 100 nM

Fill blank: measured IC50 of the compound CCn1c(-c2cccnc2[C@H](C)OC)c2c3cc(ccc31)-c1csc(n1)C[C@H](NC(=O)[C@H](C(C)C)N(C)C(=O)N(C)C1CN(C)C1)C(=O)N1CCC[C@H](N1)C(=O)OCC(C)(C)C2 is ____.
100 to 1000 nM

Fill blank: measured IC50 of the compound CCn1c(-c2cccnc2[C@H](C)OC)c2c3cc(ccc31)-c1csc(n1)C[C@H](NC(=O)[C@H](C(C)C)N(C)C(=O)N1CC3(CC(N(C)C(C)C)C3)C1)C(=O)N1CCC[C@H](N1)C(=O)OCC(C)(C)C2 is ____.
100 to 1000 nM

Fill blank: measured IC50 of the compound CCn1c(-c2cccnc2[C@H](C)OC)c2c3cc(ccc31)-c1csc(n1)C[C@H](NC(=O)[C@H](C(C)C)N(C)C(=O)N1CCN3CCOCC3C1)C(=O)N1CCC[C@H](N1)C(=O)OCC(C)(C)C2 (stereo partly drawn) is ____.
100 to 1000 nM

Fill blank: measured IC50 of the compound CCn1c(-c2cccnc2[C@H](C)OC)c2c3cc(ccc31)-c1csc(n1)C[C@H](NC(=O)[C@H](C(C)C)N(C)C(=O)N1CCO[C@@H](CN(C)C)C1)C(=O)N1CCC[C@H](N1)C(=O)OCC(C)(C)C2 is ____.
10 to 100 nM

Fill blank: measured IC50 of the compound CCn1c(-c2cnccc2COC)c2c3cc(ccc31)-c1cc(O)cc(c1)C[C@H](NC(=O)[C@H](C(C)C)N(C)c1ncco1)C(=O)N1CCC[C@H](N1)C(=O)OCC(C)(C)C2 is ____.
100 to 1000 nM

Fill blank: measured IC50 of the compound CCn1c(-c2cccnc2[C@H](C)OC)c2c3cc(ccc31)-c1cc(O)cc(c1)C[C@H](NC(=O)[C@H](C(C)C)N(C)C(=O)[C@H]1C[C@H]1O)C(=O)N1CCC[C@H](N1)C(=O)OCC(C)(C)C2 is ____.
10 to 100 nM
